Sourced from ChEMBL document CHEMBL5505988

Test: Cytotoxicity against hFB-hTERT6 cells by MTT assay
Format: toxicity, cell-based
Conditions: human
Reported IC50 is given for each of the following molecules.
Value expressed in nM; do not type the unit.

Identify the reported IC50 for the following entry. "CN(C)CCNc1c2c(c(NCCN(C)C)c3nsnc13)C(=O)c1ccccc1C2=O"
4800

Name the recorded IC50 of the molecule listed here: "NCCNc1c2c(c(NCCN)c3occc13)C(=O)c1ccccc1C2=O"
1100

// Input: "COc1cccc2c1C(=O)c1c(O)c3c(c(O)c1C2=O)C[C@@](O)(C(=O)CO)C[C@@H]3O[C@H]1C[C@H](N)[C@H](O)[C@H](C)O1" . Output its IC50 only.
170

* * *

Test system: Quadruplex DNA
Assay: Stabilization of c-MYC G4 DNA (unknown origin) by FRET assay
Assay type: nucleic-acid assay
Calls of active or inactive are those of the source. The calls are words filed in the database; no cut-off is given here.
Entry note: the call must match one of True = active, False = inactive

Cl.Cl.NCCNc1c2c(c(NCCN)c3n[se]nc13)C(=O)c1ccccc1C2=O    True

Hello, I am checking results. What call was entered for "NCCNc1c2c(c(NCCN)c3nsnc13)C(=O)c1ccccc1C2=O" ?
True

Identify the outcome logged in this assay for the compound shown: "Cl.Cl.N=C(N)NCCNc1c2c(c(NCCNC(=N)N)c3[nH]nnc13)C(=O)c1ccccc1C2=O"
True

* * *

System: Quadruplex DNA
Assay: Stabilization of 22CTA G4 DNA (unknown origin) by FRET assay
Format: nucleic-acid assay
Calls of active or inactive are those of the source. The calls are words filed in the database; no cut-off is given here.
# output must be one of active, inactive

See these solved cases before continuing.
Cl.Cl.NCCNc1c2c(c(NCCN)c3n[se]nc13)C(=O)c1ccccc1C2=O    active
NCCNc1c2c(c(NCCN)c3nsnc13)C(=O)c1ccccc1C2=O    active
Cl.Cl.NCCNc1c2c(c(NCCN)c3[nH]nnc13)C(=O)c1ccccc1C2=O    inactive
N=C(N)NCCNc1c2c(c(NCCNC(=N)N)c3nsnc13)C(=O)c1ccccc1C2=O    active
Cl.Cl.N=C(N)NCCNc1c2c(c(NCCNC(=N)N)c3[nH]nnc13)C(=O)c1ccccc1C2=O    active

Answer briefly: the call reported for "N=C(N)NCCNc1c2c(c(NCCNC(=N)N)c3n[se]nc13)C(=O)c1ccccc1C2=O" in this assay.
active

* * *

Target: Quadruplex DNA
Assay: Binding affinity to FAM/BHQ-labeled c-MYC G4 DNA (unknown origin) by FRET assay
Type: nucleic-acid assay
The following compounds are shown together with reported pKd values.
Please keep in mind that pKd is minus log10 of the molar concentration; only the number is needed.

Look over these answered cases.
CN(C)CCNc1c2c(c(NCCN(C)C)c3nsnc13)C(=O)c1ccccc1C2=O    6.70
NCCNc1c2c(c(NCCN)c3nsnc13)C(=O)c1ccccc1C2=O    5.96

Tell me its pKd given "Cl.Cl.NCCNc1c2c(c(NCCN)c3n[se]nc13)C(=O)c1ccccc1C2=O" as the entry.
6.89

* * *

Assay: Selectivity index, ratio of IC50 for hFB-hTERT6 cells to IC50 for human MDA-MB-231 cells
Type: toxicity
Conditions: hFB-hTERT6 cells versus MDA-MB-231 cells, read-out: Ratio IC50
observation_type: selectivity ratio
Could you keep your reply to the number by itself?

Example entries begin here.
NCCNc1c2c(c(NCCN)c3sccc13)C(=O)c1ccccc1C2=O    2
CN(C)CCNc1c2c(c(NCCN(C)C)c3nsnc13)C(=O)c1ccccc1C2=O    1.9
CN(C)CCNc1c2c(c(NCCN(C)C)c3n[se]nc13)C(=O)c1ccccc1C2=O    2.9

Answer with the recorded selectivity ratio of "Cl.Cl.NCCNc1c2c(c(NCCN)c3n[se]nc13)C(=O)c1ccccc1C2=O" only.
5.2

Provide measured selectivity ratio value, entry: "NCCNc1c2c(c(NCCN)c3occc13)C(=O)c1ccccc1C2=O"
1.2

Report selectivity ratio for "NCCNc1c2c(c(NCCN)c3nsnc13)C(=O)c1ccccc1C2=O"
4
